Where do the numbers come from? From patent US20070270418A1.

assayed_target: SAPK4 (Homo sapiens, UniProt O15264)
Construct: purchased Upstate (Charlottesville, Va.)
Sequence (O15264 whole entry, species assumed): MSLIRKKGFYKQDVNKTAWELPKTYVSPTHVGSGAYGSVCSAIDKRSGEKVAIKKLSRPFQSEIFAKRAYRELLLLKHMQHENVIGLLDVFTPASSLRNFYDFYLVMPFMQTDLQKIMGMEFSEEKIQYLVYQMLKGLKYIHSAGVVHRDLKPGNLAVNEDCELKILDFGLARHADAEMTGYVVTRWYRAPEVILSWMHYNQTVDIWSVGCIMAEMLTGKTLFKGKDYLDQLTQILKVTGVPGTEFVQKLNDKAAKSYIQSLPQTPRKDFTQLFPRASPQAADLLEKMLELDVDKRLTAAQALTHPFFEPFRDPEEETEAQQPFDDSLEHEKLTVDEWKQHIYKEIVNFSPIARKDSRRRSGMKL
assay_info: Broad selectivity panel, 32P incorporation
Type: biochemical
condition_set: 1 μM compound, 40 μM ATP; read-out: Percent inhibition SAPK4
Protocol: Various compounds of the present invention are screened against a panel of 24 additional kinases (Upstate, Charlottesville, Va.). Compounds are tested 0.1 μM and 1 μM in reactions containing 40 μM ATP. Incorporation of radiolabeled phosphate (^32P) into each kinase substrate is measured in the presence and absence of test compound. Results are reported as the percent decrease in the amount of ^32P incorporated into the substrate in the presence of compound, compared to buffer control.
measurement_type: inhibition at 1 µM (%)
Entry rule: numbers only, all in %.

Solved cases below.
[[record]]
compound = "Fc1ccc(-c2nc3occn3c2-c2ccnc(NC3CCNCC3)n2)cc1 [CCLXXX]"
assayed_target = "SAPK4 (Homo sapiens, UniProt O15264)"
recorded_measurement = 6

[[record]]
compound = "CS(=O)(=O)N1CCC(Nc2nccc(-c3c(-c4ccc(F)cc4)nc4occn34)n2)CC1 [CCLXXIX]"
assayed_target = "SAPK4 (Homo sapiens, UniProt O15264)"
recorded_measurement = 0

[[record]]
compound = "CC(=O)N1CCC(Nc2nccc(-c3c(-c4ccc(F)cc4)nc4occn34)n2)CC1 [CCLXXVIII]"
assayed_target = "SAPK4 (Homo sapiens, UniProt O15264)"
recorded_measurement = -4

[[record]]
compound = "CN1[C@@H]2CC[C@H]1C[C@@H](Nc1nccc(-c3c(-c4ccc(F)cc4)nc4occn34)n1)C2 [CCLXXXI]"
assayed_target = "SAPK4 (Homo sapiens, UniProt O15264)"
recorded_measurement = 7


# lookup: SAPK4 (Homo sapiens, UniProt O15264) inhibition at 1 µM, key = Fc1ccc(-c2nc3occn3c2-c2ccnc(N[C@H]3CN4CCC3CC4)n2)cc1 [LXXXVII] -1

* * *

assayed_target: p38α (Homo sapiens)
Construct: p38 MAP Kinases are recombinant human full-length proteins with an amino-terminal GST fusion; GST (N)
Sequence (Q16539 whole entry, the tested form may be a part): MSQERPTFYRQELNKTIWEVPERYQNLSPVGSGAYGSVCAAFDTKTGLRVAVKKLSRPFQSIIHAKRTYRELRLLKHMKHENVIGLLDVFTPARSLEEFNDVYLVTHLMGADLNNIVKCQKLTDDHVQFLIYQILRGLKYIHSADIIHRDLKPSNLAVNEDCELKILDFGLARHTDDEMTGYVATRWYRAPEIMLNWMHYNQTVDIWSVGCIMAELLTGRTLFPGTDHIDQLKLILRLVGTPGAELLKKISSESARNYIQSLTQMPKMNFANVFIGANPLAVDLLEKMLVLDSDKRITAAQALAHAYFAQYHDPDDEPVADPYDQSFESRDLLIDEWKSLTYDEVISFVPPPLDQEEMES
assay_info: p38 MAP Kinase assay, ATF2 phosphorylation (ELISA)
condition_set: 40 μM ATP
Source text: Compounds of the invention are screened for the ability to inhibit ATF2 phosphorylation by p38 MAP Kinase in vitro. […]
Kindly apply the following: t if IC50 is less than 200 nM, f in every other case.

State whether 200 nM exceeds IC50 recorded for `CSc1nc(Nc2nccc(-c3c(-c4ccc(F)cc4)nc4occn34)n2)n[nH]1` . f

State whether 200 nM exceeds IC50 recorded for CC(C)[C@@H](CO)Nc1nccc(-c2c(-c3ccc(F)c(F)c3)nc3sccn23)n1 [CCLXXV] . t

State whether 200 nM exceeds IC50 recorded for OC(CNc1nccc(-c2c(-c3ccc(F)cc3)nc3occn23)n1)COc1ccccc1 (stereo not drawn) . t

State whether 200 nM exceeds IC50 recorded for `OCCCNc1nccc(-c2c(-c3ccccc3)nc3sccn23)n1` . t

State whether 200 nM exceeds IC50 recorded for `CC(C)(CO)Nc1nccc(-c2c(-c3ccc(F)cc3)nc3sccn23)n1` . t

State whether 200 nM exceeds IC50 recorded for COCC(C)Nc1nccc(-c2c(-c3ccc(F)cc3)nc3occn23)n1 (stereo not drawn) . t

State whether 200 nM exceeds IC50 recorded for `COC(=O)[C@@H](CC(C)C)Nc1nccc(-c2c(-c3ccc(F)cc3)nc3sccn23)n1` . t

State whether 200 nM exceeds IC50 recorded for `COc1ccc(-c2nc3sccn3c2-c2ccnc(SC)n2)cc1` . f

State whether 200 nM exceeds IC50 recorded for CC(C)[C@@H](CO)Nc1nccc(-c2c(-c3ccc(Br)cc3)nc3sccn23)n1 [CCLXXI] . t
